Biological target: GKRP (Glucokinase Regulatory Protein) with human His-hepatic GK (Homo sapiens, UniProt Q14397)
Sequence (Q14397 whole entry): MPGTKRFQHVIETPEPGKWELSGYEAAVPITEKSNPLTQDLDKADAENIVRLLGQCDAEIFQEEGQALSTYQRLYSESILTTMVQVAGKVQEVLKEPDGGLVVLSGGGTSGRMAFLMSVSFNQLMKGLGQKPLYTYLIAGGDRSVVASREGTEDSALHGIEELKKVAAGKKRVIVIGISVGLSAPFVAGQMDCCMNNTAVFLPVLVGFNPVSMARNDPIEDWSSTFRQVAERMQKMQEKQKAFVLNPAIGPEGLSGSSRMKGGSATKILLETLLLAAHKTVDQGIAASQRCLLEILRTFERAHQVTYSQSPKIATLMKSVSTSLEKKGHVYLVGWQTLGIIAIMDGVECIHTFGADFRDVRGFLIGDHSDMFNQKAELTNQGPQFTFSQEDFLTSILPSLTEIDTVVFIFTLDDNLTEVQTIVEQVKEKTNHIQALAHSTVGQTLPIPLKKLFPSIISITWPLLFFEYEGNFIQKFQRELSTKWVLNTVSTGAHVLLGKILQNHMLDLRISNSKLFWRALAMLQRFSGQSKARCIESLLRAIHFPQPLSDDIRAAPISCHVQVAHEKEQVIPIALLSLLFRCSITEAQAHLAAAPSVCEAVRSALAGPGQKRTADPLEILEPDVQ
Assay: GKRP LC MS/MS Biochemical Assay
Conditions: GK-GKRP EC50 (LC MS/MS), 13C-glucose-6-phosphate formation; 1 μM GKRP (10×), 30 nM GK (5×)
Label True when EC50 is strictly below 1000 nM; at or above that, label False.

Exercise: Does this molecule meet the criterion EC50 < 1000 nM? O=S(=O)(c1cccs1)N1CCN(c2ccc(C(O)(C(F)(F)F)C(F)(F)F)cc2-c2cccnc2)CC1 [Example 72]
Solution: True

Exercise: Does this molecule meet the criterion EC50 < 1000 nM? CC(O)(c1ccc(N2CCN(S(=O)(=O)c3cccs3)CC2Cc2cccc(F)c2)cc1)C(F)(F)F (mixture of isomers) [Example 39]
Solution: False

Exercise: Does this molecule meet the criterion EC50 < 1000 nM? CC(O)(c1ccc(N2CCN(S(=O)(=O)c3cccs3)CC2CN2CCOCC2)cc1)C(F)(F)F (mixture of isomers) [Example 61]
Solution: True

Exercise: Does this molecule meet the criterion EC50 < 1000 nM? CC1(C#Cc2cc(C(C)(O)C(F)(F)F)ccc2N2CCN(S(=O)(=O)c3cccs3)CC2)COC1 (racemic) [Example 75]
Solution: False

Exercise: Does this molecule meet the criterion EC50 < 1000 nM? CC(O)(c1ccc(N2CCN(S(=O)(=O)c3cccs3)CC2CN2CCOC(CO)C2)cc1)C(F)(F)F (mixture of isomers) [Example 52]
Solution: False

Exercise: Does this molecule meet the criterion EC50 < 1000 nM? CC(O)(c1ccc(-c2ccc(S(=O)(=O)c3ccccc3)c(Cl)c2)cc1)C(F)(F)F (racemic) [Example 19]
Solution: False

Exercise: Does this molecule meet the criterion EC50 < 1000 nM? Cc1ccccc1S(=O)(=O)N1CCN(c2ccc(C(O)(C(F)(F)F)C(F)(F)F)cc2)CC1 [Example 4]
Solution: False
